target: NLRP3 inflammasome (Homo sapiens, UniProt Q96P20); construct: endogenous in cells; experiment: IL-1β secretion assay (NLRP3 IC50) in LPS-primed, nigericin-activated THP-1 cells, HTRF; conditions: monocytic THP-1 cells; LPS 10 ng/mL 3 h priming, then compound + nigericin 10 μM 2 h; relative IC50, 10 concentrations, geometric mean
Sequence (Q96P20 whole entry): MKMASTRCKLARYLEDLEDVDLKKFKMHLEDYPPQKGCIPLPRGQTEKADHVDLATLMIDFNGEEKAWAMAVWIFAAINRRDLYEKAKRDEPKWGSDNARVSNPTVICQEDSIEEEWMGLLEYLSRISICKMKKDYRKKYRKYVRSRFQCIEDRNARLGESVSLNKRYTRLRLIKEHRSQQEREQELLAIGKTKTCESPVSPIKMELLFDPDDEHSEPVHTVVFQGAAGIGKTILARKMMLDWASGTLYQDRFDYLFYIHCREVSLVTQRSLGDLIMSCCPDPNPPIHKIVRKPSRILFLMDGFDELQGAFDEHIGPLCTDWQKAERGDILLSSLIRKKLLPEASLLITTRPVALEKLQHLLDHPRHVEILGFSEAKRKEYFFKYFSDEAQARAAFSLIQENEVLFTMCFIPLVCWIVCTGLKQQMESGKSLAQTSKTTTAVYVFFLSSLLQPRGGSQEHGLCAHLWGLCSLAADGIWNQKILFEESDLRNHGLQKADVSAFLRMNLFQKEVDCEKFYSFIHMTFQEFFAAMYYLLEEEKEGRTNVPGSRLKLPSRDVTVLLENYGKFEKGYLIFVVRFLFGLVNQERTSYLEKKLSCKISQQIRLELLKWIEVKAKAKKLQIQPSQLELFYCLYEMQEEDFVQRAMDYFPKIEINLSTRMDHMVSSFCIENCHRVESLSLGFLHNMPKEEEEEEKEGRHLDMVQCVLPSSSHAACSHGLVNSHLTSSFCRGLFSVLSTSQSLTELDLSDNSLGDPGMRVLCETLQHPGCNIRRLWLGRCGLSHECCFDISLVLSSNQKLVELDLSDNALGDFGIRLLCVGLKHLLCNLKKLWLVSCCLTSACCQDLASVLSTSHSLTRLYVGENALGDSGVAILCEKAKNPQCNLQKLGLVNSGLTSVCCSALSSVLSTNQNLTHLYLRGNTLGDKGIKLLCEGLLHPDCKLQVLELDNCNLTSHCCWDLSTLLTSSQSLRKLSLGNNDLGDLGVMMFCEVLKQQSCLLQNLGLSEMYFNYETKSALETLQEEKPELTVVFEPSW
assay endpoint: pIC50
Value format note: pIC50 is -log10 of concentration (mol/L); just state the number.

CCC(=O)C1CN(c2ccc(-c3c(C)cc(C)cc3O)nn2)CCO1 (single isomer, unassigned) [Example 156] : 5.97
CCN1CC[C@@H]2OCCN(c3ccc(-c4c(C)cc(C)cc4O)nn3)[C@@H]2C1 (racemic) [Example 209] : 8.70
Cc1cc(C(F)(F)F)cc(O)c1-c1ccc(N2CCC[C@@H]3[C@H]2CCCN3C)nn1 [Example 516] : 5.97
Oc1cc(Cl)cc(Cl)c1-c1ccc(N2CC3(COC3)C2)nn1 [Example 64] : 6.65
Cc1cc(C)c(-c2ccc(N3CCO[C@@H](CC(=O)N(C)C)C3)nn2)c(O)c1 (single isomer, unassigned) [Example 151] : 5.93

Please look up its pIC50: Cc1cc(C)c(-c2ccc(N3CCOC([C@H](C)O)C3)nn2)c(O)c1 (single isomer, unassigned) [Example 99]
6.12

Please report the recorded pIC50 for Cc1cc(-c2c(C)cc(Cl)cc2O)nnc1N1CCO[C@H](CO)C1 [Example 133] .
7.17

---

target: NLRP3 inflammasome (Homo sapiens, UniProt Q96P20); construct: endogenous in cells; assay: IL-1β secretion assay (NLRP3 IC50) in LPS-primed, nigericin-activated THP-1 cells, HTRF; conditions: monocytic THP-1 cells; LPS 10 ng/mL 3 h priming, then compound + nigericin 10 μM 2 h; relative IC50, 10 concentrations, geometric mean
Listed here are compounds together with their documented IC50.

CN1CC[C@@H]2CCN(c3cc(C(F)F)c(-c4ccc(Cl)cc4O)nn3)[C@@H]2C1 (single isomer, unassigned) : < 0.3 nM
Cc1cc(C(F)(F)F)cc(O)c1-c1ccc(N2CCO[C@@H]3CN(C)C[C@H]32)nn1 (racemic) : 140 nM
CC(=O)N1CC[C@H]2CCN(c3cc(C)c(-c4ccc(C(F)(F)F)cc4O)nn3)[C@H]2C1 : 196 nM
CC(=O)N1CC[C@@H]2OCCN(c3ccc(-c4c(C)cc(C(F)(F)F)cc4O)nn3)[C@@H]2C1 (single isomer, unassigned) : 180 nM
Cc1cc(C(F)(F)F)cc(O)c1-c1ccc(N2CC[C@@H]3CCN(C)C[C@@H]32)nn1 (racemic) [Example 371] : 1 nM

# value lookup — system NLRP3 inflammasome (Homo sapiens, UniProt Q96P20), readout IC50, item "Cc1cc(C)c(-c2cc(C)c(N3CCO[C@H](CO)C3)nn2)c(O)c1"
89 nM

What reported IC50 corresponds to "Cc1cc(Cl)cc(O)c1-c1nnc(N2CCO[C@H](CO)C2)cc1CO" on NLRP3 inflammasome (Homo sapiens, UniProt Q96P20)?
414 nM

So what IC50 did "Cc1cc(C(F)(F)F)cc(O)c1-c1ccc(N2CC[C@@H](O)CC2=O)nn1" get with NLRP3 inflammasome (Homo sapiens, UniProt Q96P20)?
287 nM

# query: IC50 | item Cc1cc(C(F)(F)F)cc(O)c1-c1ccc(N2CCO[C@H]3CCOC[C@@H]32)nn1 (racemic) | system: NLRP3 inflammasome (Homo sapiens, UniProt Q96P20)
370 nM

Request body: readout IC50, system NLRP3 inflammasome (Homo sapiens, UniProt Q96P20), query "Cc1cc(N2CCO[C@@H]3CCN(C)C[C@@H]32)nnc1-c1cccc(F)c1O" . Return the value.
61 nM

---

target: NLRP3 inflammasome (Homo sapiens, UniProt Q96P20); construct: endogenous in cells; assay: IL-1β secretion assay (NLRP3 IC50) in LPS-primed, nigericin-activated THP-1 cells, HTRF; conditions: monocytic THP-1 cells; LPS 10 ng/mL 3 h priming, then compound + nigericin 10 μM 2 h; relative IC50, 10 concentrations, geometric mean
IC50 under 0.07 µM gets Satisfied, anything at or over 0.07 µM gets Not satisfied.

Cc1ccc(-c2nnc(N3CCO[C@@H]4CCN(C)C[C@@H]43)cc2C)c(O)c1 : Satisfied
CCc1cc(Cl)cc(O)c1-c1ccc(N2CCO[C@@H]3CCN(C)C[C@@H]32)nn1 : Satisfied
CCN1CC[C@@H]2OCCN(c3ccc(-c4c(C)cc(C(F)(F)F)cc4O)nn3)[C@@H]2C1 (racemic) [Example 210] : Satisfied
Cc1cc(C(F)(F)F)cc(O)c1-c1ccc(N2CCO[C@@H](C)C2)nn1 : Satisfied
Cc1cc(C)c(-c2ccc(N3CC4(CCC(O)CC4)C3)nn2)c(O)c1 : Not satisfied
CN(C)C[C@@H]1CCN(c2ccc(-c3c(O)cc(Cl)cc3Cl)nn2)C1 : Not satisfied

Take the compound CC(=O)NCCC1CN(c2ccc(-c3c(C)cc(C(F)(F)F)cc3O)nn2)CCO1 (single isomer, unassigned) [Example 278] and say whether its IC50 is less than 0.07 µM.
Satisfied

---

target: NLRP3 inflammasome (Homo sapiens, UniProt Q96P20); construct: endogenous in cells; experiment: IL-1β secretion assay (NLRP3 IC50) in LPS-primed, nigericin-activated THP-1 cells, HTRF; conditions: monocytic THP-1 cells; LPS 10 ng/mL 3 h priming, then compound + nigericin 10 μM 2 h; relative IC50, 10 concentrations, geometric mean
The recorded IC50 of each item maps onto one of these classes: Low = under 200 nM, Mid = from 200 nM up to 1000 nM, High = 1000 nM and over

The following compounds have reported results that may help.
COC[C@@H]1CCN(c2ccc(-c3c(C)cc(C)cc3O)nn2)C1 : High
CC(=O)N1CC[C@H]2OCCN(c3cc(C(F)F)c(-c4ccc(C(F)(F)F)cc4O)nn3)[C@H]2C1 : Low
Cc1cc(C)c(-c2ccc(N3CCO[C@@H](C4(N)CC4)C3)nn2)c(O)c1 (single isomer, unassigned) : High

Input "Cc1cc(C)c(-c2ccc(N3CCCc4ccccc43)nn2)c(O)c1" ; output its category
High

Could you tell me which band "Cc1cc(C)c(-c2ccc(N3CCOC[C@@H]3CN)nn2)c(O)c1" belongs to?
High

Assign a category based on measured IC50 for Cc1cc(C)c(-c2ccc(N3CCC4(COCCN4C)C3)nn2)c(O)c1 (stereo not shown) and give only the class name.
High

Assign a category based on measured IC50 for Cc1cc(C)c(-c2ccc(N3CCCCC(CO)C3)nn2)c(O)c1 (stereo not shown) and give only the class name.
Mid

Into which category would you place "Cc1cc(C(F)(F)F)cc(O)c1-c1ccc(N2CCO[C@H](C)C2)nn1" ?
Low

Input "Cc1cc(C)c(-c2ccc(N3CCO[C@@H]4CCN(CCF)C[C@@H]43)nn2)c(O)c1" ; output its category
Low

Quick check: band for Cc1cc(C)c(-c2ccc(N3CCO[C@@H]4CCOC[C@@H]43)nn2)c(O)c1 (racemic)
Mid

Input "Cc1cc(C)c(-c2ccc(N3CC[C@]4(COCCN4C)C3)nn2)c(O)c1" ; output its category
High

In plain terms, what class is "Cc1cc(C)c(-c2ccc(N3CCOC[C@@H]3CO)nn2)c(O)c1" ?
Mid

Tag the class for "CC(=O)N1CC[C@H]2OCCN(c3nnc(-c4c(C)cc(C)cc4O)cc3C(F)F)[C@H]2C1"
Low

Assign a category based on measured IC50 for Cc1cc(C)c(-c2ccc(N3CC[C@H](CO)C3=O)nn2)c(O)c1 (single isomer, unassigned) and give only the class name.
Mid

---

target: NLRP3 inflammasome (Homo sapiens); construct: endogenous in cells; test: IL-1β secretion assay (NLRP3 IC50) in LPS-primed, nigericin-activated THP-1 cells, HTRF; conditions: monocytic THP-1 cells; LPS 10 ng/mL 3 h priming, then compound + nigericin 10 μM 2 h; relative IC50, 10 concentrations, geometric mean
assay endpoint: pIC50
Scale: pIC50 equals -log10([C]), with [C] in mol/L.

// known answers, use as guide
Cc1cc(C)c(-c2ccc(N3CC[C@@H]4CCN(C)C[C@@H]43)nn2)c(O)c1 (single isomer, unassigned) [Example 384] : 9.40
Cc1cc(C)c(-c2cc(C(F)F)c(N3CCO[C@H](CO)C3)nn2)c(O)c1 : 7.92
CC(=O)N1CC[C@H]2CCN(c3ccc(-c4c(C)cc(C)cc4O)nn3)[C@H]2C1 (single isomer, unassigned) [Example 413] : 6.30
Cc1cc(C(F)(F)F)cc(O)c1-c1ccc(N2CCO[C@H]3CCNC[C@H]32)nn1 (racemic) [Example 197] : 8.05
Cc1cc(C)c(-c2ccc(N3CC[C@H]3CO)nn2)c(O)c1 : 5.81

So what's the measured pIC50 for this one? "Cc1cc(C(F)(F)F)cc(O)c1-c1ccc(N2CCOc3c[nH]nc32)nn1"
6.38
